System: normal primary NK cells, pool 1 (3 donors), resting (IL-2 0 ng/mL)
TEST DETAILS: percent inhibition of viability; higher = more inhibition
EXPERIMENTAL SETUP: 72 h; 1000 nM
REPORTED METRIC: percent inhibition of viability
The number alone won't do; follow it with the unit.

Recorded results for 4 molecules are shown here.
MOLECULE	percent inhibition of viability
Cc1cc(OCc2nnc(SC3CCCC3)n2-c2cccnc2)ccc1-c1ccc(S(C)(=O)=O)cc1 [NMS-873] (max concentration tested 10000 nM)	58.2%
CCCCCOC(=O)Nc1nc(=O)n([C@@H]2O[C@H](C)[C@@H](O)[C@H]2O)cc1F [Capecitabine] (max concentration tested 10000 nM)	10.2%
C[C@@H]1CN(Cc2ccc(F)cc2)[C@@H](C)CN1C(=O)c1cc2c(C(=O)C(=O)N(C)C)cn(C)c2cc1Cl [Talmapimod] (max concentration tested 10000 nM)	15.2%
CCC1=C[C@@H]2CN(C1)Cc1c([nH]c3ccccc13)[C@@](C(=O)OC)(c1cc3c(cc1OC)N(C)[C@H]1[C@@](O)(C(=O)OC)[C@H](OC(C)=O)[C@]4(CC)C=CCN5CC[C@]31[C@@H]54)C2 [Vinorelbine] (max concentration tested 10000 nM)	21.5%

As a next step, examine the molecule that follows.
Looking up CN(C)/N=N/c1[nH]cnc1C(N)=O [Dacarbazine] (max concentration tested 10000 nM) , I see its percent inhibition of viability listed as -35.2%

----------
System: IMC-1 (IL-2 20 ng/mL)
TEST DETAILS: drug sensitivity score (DSS) (DSS units); higher = more sensitive; extreme values may be limits of the assay
EXPERIMENTAL SETUP: 72 h
Reported drug sensitivity score values are given for each entry in this list.
Number only, please.

Recorded results for 4 molecules are shown here.
MOLECULE	REPORTED METRIC	NUMBER
Cc1ccc(NC(=O)c2ccc(CN3CC[C@H](N(C)C)C3)c(C(F)(F)F)c2)cc1Nc1nccc(-c2cncnc2)n1 [Bafetinib] (max concentration tested 1000 nM)	drug sensitivity score	0
CC(=O)[C@]1(O)Cc2c(O)c3c(c(O)c2[C@@H](O[C@H]2C[C@H](N)[C@H](O)[C@H](C)O2)C1)C(=O)c1ccccc1C3=O [Idarubicin] (max concentration tested 1000 nM)	drug sensitivity score	25.6
CC(C)CC(=O)Nc1n[nH]c2c1CN(C(=O)C1CCN(C)CC1)C2(C)C (max concentration tested 10000 nM)	drug sensitivity score	21
C/C(=C\c1csc(C)n1)[C@@H]1C[C@@H]2O[C@]2(C)CCC[C@H](C)[C@H](O)[C@@H](C)C(=O)C(C)(C)[C@@H](O)CC(=O)O1 [Patupilone] (max concentration tested 1000 nM)	drug sensitivity score	30.1

Looking up O=C(O)CNC(=O)c1c(O)c2ccccc2n(Cc2ccccc2)c1=O [IOX-2] (max concentration tested 50000 nM) , I see its drug sensitivity score listed as 2.14

----------
System: SNK-6 (IL-2 2.5 ng/mL)
TEST DETAILS: percent inhibition of viability; higher = more inhibition
EXPERIMENTAL SETUP: 72 h; 1000 nM
REPORTED METRIC: percent inhibition of viability (%)
Entry rule: numbers only, all in %.

Recorded results for 5 compounds are shown here.
COMPOUND	NUMBER
CO[C@@H]1[C@H](N(C)C(=O)c2ccccc2)C[C@H]2O[C@]1(C)n1c3ccccc3c3c4c(c5c6ccccc6n2c5c31)C(=O)NC4 [Midostaurin] (max concentration tested 10000 nM)	95.2
Cc1c(NC(=O)OC[C@@H]2COCCN2)cn2ncnc(Nc3ccc4c(cnn4Cc4cccc(F)c4)c3)c12 (max concentration tested 10000 nM)	-27.8
Clc1ccccc1C(c1ccccc1)(c1ccccc1)n1cccn1 [TRAM-34] (max concentration tested 1000 nM)	3.1
Cc1nc(Nc2n[nH]c3c2CN(C(=O)N[C@H](CN(C)C)c2ccccc2)C3(C)C)c2sccc2n1 (max concentration tested 10000 nM)	31.2
CNC(=O)c1nn(C)c2c1C(C)(C)Cc1cnc(Nc3ccc(N4CCN(C)CC4)cc3)nc1-2 [Milciclib] (max concentration tested 10000 nM)	17.8

Looking up CO[C@@]12[C@H](COC(N)=O)C3=C(C(=O)C(C)=C(N)C3=O)N1C[C@@H]1N[C@@H]12 [Mitomycin C] (max concentration tested 10000 nM) , I see its percent inhibition of viability listed as 85.5

Looking up CN[C@@H]1C[C@H]2O[C@@](C)([C@@H]1OC)n1c3ccccc3c3c4c(c5c6ccccc6n2c5c31)C(=O)N[C@H]4O [UCN-01] (max concentration tested 10000 nM) , I see its percent inhibition of viability listed as 100

Looking up CC[C@@]1(O)C(=O)OCc2c1cc1n(c2=O)Cc2cc3c(CN(C)C)c(O)ccc3nc2-1 [Topotecan] (max concentration tested 10000 nM) , I see its percent inhibition of viability listed as 96.6

Values compiled from the supplement of paper PMC5908809.
